# Test system: UACC-62 melanoma
# assayName: NCI-60 one-dose screen, 48 h (100 = growth as untreated, 0 = no growth, -100 = all killed)
# experimentalParameters: 10 µM unless noted
The panel holds about 83,000 compounds, 20% with a hit somewhere; the sample as a whole holds those more often.
Rule: growth of -20% or more gives true (1); anything lower gives false (0).

CCCCCc1ccc(S(=O)(=O)N(C(C)=O)c2cccc(-c3csc(N(CCN4CCN(C)CC4)C(C)=O)n3)c2)cc1 = false (0)
CC(C)C[C@H]1C(=O)O[C@H](C(C)C)C(=O)N(C)[C@@H](C(C)C)C(=O)O[C@H](C(C)C)C(=O)N(C)[C@@H](C(C)C)C(=O)O[C@H](C(C)C)C(=O)N1C = true (1)
C/C(=C(/c1ccc(O)cc1)c1ccc(OCCN2CCCC2)cc1)c1ccc(Cl)cc1 = true (1)
O=C(/C=C1\C=CN(CCCCF)c2ccccc21)n1ccc2ccccc21 = true (1)
COc1cc2c3c(n(CCCN4CCC[C@H]4C(N)=O)c(=O)c2cc1OC)-c1cc2c(cc1C3=O)OCO2 = false (0)
Nc1nc(-c2cccc([N+](=O)[O-])c2)c(N=Nc2cccc(Cl)c2)s1 = true (1)
NC(=O)c1c(NC(=O)c2cccc(OC(F)(F)F)c2)sc2c1CCC(=O)C2 = true (1)
Nc1nc(-c2cccc([N+](=O)[O-])c2)c(N=Nc2ccccc2Cl)s1 = true (1)

---

# System: HCT-116 colon
# assayName: NCI-60 one-dose screen, 48 h (100 = growth as untreated, 0 = no growth, -100 = all killed)
# experimentalParameters: 10 µM unless noted
# Description: Growth inhibition of the HCT-116 human tumor cell line is measured as a screen for anti-cancer activity. Cells are grown in 96 well plates and exposed to the test compound for 48 hours. Compounds are tested at a single concentration, which is 10^-5 M for most compounds. The reported endpoint is percent growth (GI% or GIPRCNT), where numbers from 0 - 100% represent growth inhibition, and numbers from -100% - 0 represent cell death. For example, a value of 40 represents 60% growth inhibition. […]
About 83,000 compounds went through this panel and 20% of them were active in at least one assay; those are over-represented in the sample as a whole.
experimentalEndpoint: growth (%)

COc1cc2c3c(n(CCCN4CCCCC4)c(=O)c2cc1OC)-c1cc2c(cc1C3=O)OCO2 = -71.9
CN1CCN(Cc2ccc(NC(=O)c3cncc(C#Cc4cnc5ccc(NC6CCOCC6)nn45)c3)cc2C(F)(F)F)CC1 = -79
C(=C(\C1=NCCN1)n1cnc2ccccc21)/c1ccc2ccccc2c1 = 67.1
Cc1ccc(-c2nnc3sc(C4=Cc5ccccc5OC=C4)nn23)cc1 = 104
CCCCCCNC(=O)Oc1ccc(/C(=C(\C)c2ccc(OC)cc2)c2ccc(OCCN(C)C)cc2)cc1 = 37.2
C#C[C@]1(O)CC[C@H]2[C@@H]3CC=C4c5sc(C6CC6)nc5CC[C@]4(C)[C@H]3CC[C@@]21C = 71.4
C#C[C@]1(O)CC[C@H]2[C@@H]3CC=C4c5sc(Nc6cc(OC)ccc6OC)nc5CC[C@]4(C)[C@H]3CC[C@@]21C = 19.3
Cc1cc(O)c(=O)cc2c1C[C@H]1CC(C)(C)/C=C/C[C@]3(C)Oc4cc(=O)c(O)cc(C)c4C[C@H]3C[C@H](O)[C@@]1(C)O2 = 11.3
O=[N+]([O-])c1ccc(-c2nnc(SCc3ccc(O)c4ncccc34)o2)cc1 = 12.7
CC(C)N=C(N/C(N)=N/c1nc2ccccc2s1)NC(C)C = 17.7

---

# Tested on: RPMI-8226 leukemia
# assayName: NCI-60 one-dose screen, 48 h (100 = growth as untreated, 0 = no growth, -100 = all killed)
# experimentalParameters: 10 µM unless noted
# Method: Growth inhibition of the RPMI-8226 human tumor cell line is measured as a screen for anti-cancer activity. Cells are grown in 96 well plates and exposed to the test compound for 48 hours. Compounds are tested at a single concentration, which is 10^-5 M for most compounds. The reported endpoint is percent growth (GI% or GIPRCNT), where numbers from 0 - 100% represent growth inhibition, and numbers from -100% - 0 represent cell death. For example, a value of 40 represents 60% growth inhibition. […]
The panel holds about 83,000 compounds, 20% with a hit somewhere; the sample as a whole holds those more often.
I'd appreciate it if you could label each record using growth and these ranges: lowest: < -10%; middle: ≥ -10% and < 80%; highest: ≥ 80%

Nc1nc(-c2cccc([N+](=O)[O-])c2)c(N=Nc2ccccc2[N+](=O)[O-])s1 = middle
C=CCn1c(SCC(=O)Nc2ccc(OC)cc2)nnc1-c1ccc(Cl)cc1 = highest
CCOC(=O)C1=C(C)Nc2nnc(Nc3ccccc3)n2C1c1ccccc1 (centres undefined) = middle
CCn1c2ccc(/C=N/NS(=O)(=O)CCN(C)C)cc2c2cc(/C=N/NS(=O)(=O)CCN(C)C)ccc21 = highest
Cc1nn(-c2ccc(Br)cc2)c2nc(CCl)[nH]c(=O)c12 = lowest
O=S(=O)(NC1CC2CCC1C2)c1ccc2c(c1)C(=NO)c1cc(S(=O)(=O)NC3CC4CCC3C4)ccc1-2 (centres undefined) = lowest
CC(=O)Nc1ccc(C)c(Nc2cc(-c3ccc(-n4cccn4)cc3)[nH]n2)c1 = middle
C/C(=C(/c1ccc(O)cc1)c1ccc(OCCN2CCCCCC2)cc1)c1ccccc1 = middle
CNC(=O)c1c(NC(=O)c2ccc(F)cc2F)sc2c1CCC(=O)C2 = lowest

---

# System: SNB-19 CNS
# assayName: NCI-60 one-dose screen, 48 h
# experimentalParameters: 10 µM unless noted
This is part of a sample that, as a whole, favours compounds with a hit. Of some 83,000 tested, about 20% had one in any assay. Calls of active or inactive are those of the source. The calls were made as follows: active = growth percent below 10; inactive = the rest.
Labels: true (1) = active, false (0) = inactive

Cc1occc1-c1nc2s/c(=C\c3cn(-c4ccccc4)nc3-c3ccccc3)c(=O)n2n1 = false (0)
C=CCn1c(SCC(=O)Nc2cccc(C(=O)/C=C/c3ccc(OC)c(OC)c3)c2)nc2ccccc2c1=O = false (0)
C#CCOc1ccc(/C=N/Nc2nc(-c3cc(Cl)ccc3Cl)cs2)cc1 = false (0)
CCN(CC)CCN1C(=O)c2c(c3c4cccnc4[nH]c3c3ccc4ccccc4c23)C1=O = false (0)
Oc1ccc(CSc2nnc(-c3ccncc3)o2)c2cccnc12 = false (0)
COc1ccc(-c2nc3cc(Cl)c(Cl)cc3n2CC(=O)N=Nc2c(O)[nH]c3ccccc23)cc1 = false (0)
C/C(=C(/c1ccc(O)cc1)c1ccc(OCCN2CCCC2)cc1)c1ccc(Cl)cc1 = false (0)
NC(=O)c1c(NC(=O)c2cccc(C(F)(F)F)c2F)sc2c1CCC(=O)C2 = false (0)
O=S(=O)(Nc1cc(Cl)cc(Cl)c1)c1ccc(-c2cnc(C3CC3)o2)cc1 = false (0)
Cn1cc(-c2nn3cc(-c4cccnc4)nc3s2)c2ccccc21 = false (0)
CS(=O)c1nccc(-c2c(-c3ccc(F)c(OCCc4ccccc4)c3)nc3sccn23)n1 (stereo not given) = false (0)
CS(=O)(=O)c1ccc(-c2nn(-c3ccccc3)cc2/C=C/C(=O)c2ccc(Br)cc2)cc1 = false (0)
CC1=C2C(=C[C@@](C)(COS(N)(=O)=O)[C@@H]2O)C(=O)[C@](C)(O)C12CC2 = false (0)
CCc1ccc(NC(=O)N[C@@H](Cc2cccc(C)c2)C(=O)N[C@@H]2C(=O)N3CCC[C@H]3C(=O)N3CCCC[C@H]3C(=O)N[C@@H](CO)C(=O)N3C[C@H](C)C[C@H]3C(=O)O[C@H]2C)c(F)c1 = false (0)
O=C(/C=C1\C=CN(CCCCO)c2ccccc21)n1ccc2ccccc21 = false (0)
O=C1[C@@H]2Cc3c([nH]c4ccccc34)[C@H](c3c(Cl)cccc3Cl)N2C(=O)CN1C1CCN(Cc2ccccc2)CC1 = false (0)
CC(=O)NC(C)(C)C(=O)N1CCC[C@H]1C(=O)NC(C)(C)C(=O)N[C@@H](C)C(=O)NC(C)(C)C(=O)NC(C)(C)C(=O)N[C@@H](CCC(N)=O)C(=O)NC(C)(C)C(=O)N[C@H](C(=O)NC(C)(C)C(=O)NCC(=O)N[C@@H](CC(C)C)C(=O)NC(C)(C)C(=O)N1CCC[C@H]1C(=O)N[C@H](C(=O)NC(C)(C)C(=O)NC(C)(C)C(=O)N[C@@H](CCC(N)=O)C(=O)N[C@@H](CCC(N)=O)C(=O)N[C@H](CO)Cc1ccccc1)C(C)C)C(C)C = false (0)
CCOC(=O)CC(=O)CSC1=NC2C(NN1)N(C)C(=O)N2C (stereo not given) = false (0)
CCC(=O)Nc1ccc(-c2nc(-c3cccc(O)c3)c(-c3ccnc(Br)c3)[nH]2)cc1 = false (0)
N/C(=N\c1nc2c(Cl)cccc2s1)C(Cl)(Cl)Cl = false (0)
COc1ccc(-c2no[n+]([O-])c2Nc2ccccc2Br)cc1 = false (0)
CN1CCN(c2nc(-c3csc(-c4ccncc4)n3)cc3ccccc23)CC1 = false (0)
Oc1ccc(-c2nnc(SCc3ccc(O)c4ncccc34)o2)cc1 = false (0)
CCOC(=O)c1c(NC(=O)c2ccc(F)cc2F)sc2c1CCC(=O)C2 = false (0)
O=C1[C@H]2Cc3c([nH]c4ccccc34)[C@@H](c3c(Cl)cccc3Cl)N2C(=O)CN1C1CCN(Cc2ccccc2)CC1 = false (0)
COc1cc2c3c(n(CCCNC4CCCCC4)c(=O)c2cc1OC)-c1cc2c(cc1C3=O)OCO2 = true (1)
CC(C)(C)n1nnnc1C(Nc1nccs1)c1cc2cccc3ccc4cccc1c4c32 (stereo not given) = false (0)
COC[C@@]1(C)CC[C@]2(C)CC[C@]3(C)C(=CC[C@@H]4[C@@]5(C)CCCNC(C)(C)[C@@H]5CC[C@]43C)C2C1 (stereo not given in full) = false (0)
COc1ccc(CCN2C(=O)/C(=C/c3nc(CO)cs3)SC2=S)cc1 = false (0)
Oc1ccc(CSc2nnc(-c3ccc(Oc4ccccc4)cc3)n2-c2ccccc2)c2cccnc12 = false (0)
Cc1ccc(Cc2cnc(NC(=O)/C(C#N)=C/c3ccc(-c4ccc(Cl)cc4)o3)s2)cc1 = false (0)
C#C[C@]1(O)CC[C@H]2[C@@H]3CC=C4c5sc(Nc6ccncc6)nc5CC[C@]4(C)[C@H]3CC[C@@]21C = true (1)
CCN1C/C(=N\S(=O)(=O)c2ccccc2)N(CC)C1=S = false (0)
C/C(=N/Nc1nc(N/N=C(/C)c2ccc([N+](=O)[O-])cc2)nc(N2CCOCC2)n1)c1ccc([N+](=O)[O-])cc1 = false (0)
CCN(CC)CCN1C(=O)c2c(c3c4cc(Br)ccc4[nH]c3c3ccc4ccccc4c23)C1=O = true (1)

Reference source: PubChem BioAssay (NCI)
